Origin of values: ChEMBL document CHEMBL3507680

- assay: Human HepG2 cell viability assay in 384 well format
- Format: toxicity, cell-based
- Parameters: dose 125 nL, time 70.5 hour; concentration not given beside the values
- condition-description: HepG2 cells, read-out: Inhibition
value-type: cytotoxicity at 70.5 h (%)
Respond numerically; units are % and should not be typed.

Q) Any idea what cytotoxicity at 70.5 h was measured for `OC[C@H]1CCCN1c1nccc(-c2cncnc2C2CCCCC2)n1` ?
A) -2.18

Q) Any idea what cytotoxicity at 70.5 h was measured for CCN1CCN(C(C)CNC(=O)Nc2cnn(CC)c2)CC1 (stereo unspecified) ?
A) -7.65

Q) Any idea what cytotoxicity at 70.5 h was measured for CCN(CC)CCCC(C)NC(=O)c1ccccc1-n1cccn1 (stereo unspecified) ?
A) -9.46

Q) Any idea what cytotoxicity at 70.5 h was measured for `CN1C(=O)C2(CCN(CC3CC3)CC2)c2ccccc21` ?
A) -2.61

Q) Any idea what cytotoxicity at 70.5 h was measured for CC(C)n1nc(Cn2cccn2)c2c1CN(CC1CCOC1)C2 (stereo unspecified) ?
A) -4.31

Q) Any idea what cytotoxicity at 70.5 h was measured for `Cc1cccc(CN2C[C@@H]3CN(C(=O)[C@H]4CCCO4)C[C@@H]3C2=O)c1` ?
A) -5.16

* * *

- assay: Human HepG2 cell viability assay in 384 well format
- Type: toxicity, cell-based
- Design: dose 125 nL, time 70.5 hour; concentration not given beside the values
- condition-description: HepG2 cells, read-out: Inhibition
value-type: cytotoxicity at 70.5 h (%)
Respond numerically; units are % and should not be typed.

Q) Any idea what cytotoxicity at 70.5 h was measured for `CCn1ccnc1CN1CCCN(C(=O)c2sccc2C#N)CC1` ?
A) 1.96

Q) Any idea what cytotoxicity at 70.5 h was measured for `CCc1c(C)sc2ncnc(N3CC[C@@H](N4CCC(O)CC4)[C@H](O)C3)c12` ?
A) -10.6

Q) Any idea what cytotoxicity at 70.5 h was measured for `CC(C)n1nc(CN(C)C)c2c1CN(CC1CC1)CC2` ?
A) 2.39

Q) Any idea what cytotoxicity at 70.5 h was measured for `O=C(c1ccc2occc2c1)N1CCC(C(=O)O)(n2cccn2)CC1` ?
A) -4.27

Q) Any idea what cytotoxicity at 70.5 h was measured for `O=C(NCCNc1ncccn1)N1CC=C(c2ccccc2)CC1` ?
A) -4.56

More entries:
Q) Any idea what cytotoxicity at 70.5 h was measured for Cc1cc(C(=O)NC(C)Cc2ccccc2Cl)n(C)n1 (stereo unspecified) ?
A) -7.08

* * *

- assay: Human HepG2 cell viability assay in 384 well format
- Format: toxicity, cell-based
- Set-up: dose 125 nL, time 70.5 hour; concentration not given beside the values
- condition-description: HepG2 cells, read-out: Inhibition
value-type: cytotoxicity at 70.5 h (%)
Respond numerically; units are % and should not be typed.

Field: example entries. Status: answers known.
Q) Any idea what cytotoxicity at 70.5 h was measured for CC1(C)CN=C(N2CCN(CC3CCOC3)CC2)S1 (configuration not stated) ?
A) -12.3

Q) Any idea what cytotoxicity at 70.5 h was measured for CCC(Nc1cccc(Oc2ccccn2)c1)C(N)=O (configuration not stated) ?
A) -7.08

Q) Any idea what cytotoxicity at 70.5 h was measured for `O=C(NCCSC1CCCC1)c1cc(C2CC2)on1` ?
A) -0.97

Q) Any idea what cytotoxicity at 70.5 h was measured for COc1c(C)cnc(CN2CCOC(Cn3nc(C)nc3C)C2)c1C (configuration not stated) ?
A) -1.22

Q) Any idea what cytotoxicity at 70.5 h was measured for COc1ccc(CC(=O)NCC(O)c2sccc2C)cc1OC (configuration not stated) ?
A) -6.12

More entries:
Q) Any idea what cytotoxicity at 70.5 h was measured for Cc1nc(-c2ccncc2)ncc1C(C)NC(=O)CN1CCCC1=O (configuration not stated) ?
A) -5.92

Q) Any idea what cytotoxicity at 70.5 h was measured for `O=C(C1CCC1)N1CCN(Cc2ccccc2F)[C@H]2CS(=O)(=O)C[C@H]21` ?
A) -4.65

Q) Any idea what cytotoxicity at 70.5 h was measured for CCn1c(CN(C)C(C)CSC)nc2c(F)cccc21 (configuration not stated) ?
A) -3.45
